Values compiled from ChEMBL document CHEMBL5360622.

Data export: IC50 values recorded with Cyclin-dependent kinase 5/CDK5 activator 1 (Homo sapiens, UniProt Q00535).
Sequence (Q00535 whole entry): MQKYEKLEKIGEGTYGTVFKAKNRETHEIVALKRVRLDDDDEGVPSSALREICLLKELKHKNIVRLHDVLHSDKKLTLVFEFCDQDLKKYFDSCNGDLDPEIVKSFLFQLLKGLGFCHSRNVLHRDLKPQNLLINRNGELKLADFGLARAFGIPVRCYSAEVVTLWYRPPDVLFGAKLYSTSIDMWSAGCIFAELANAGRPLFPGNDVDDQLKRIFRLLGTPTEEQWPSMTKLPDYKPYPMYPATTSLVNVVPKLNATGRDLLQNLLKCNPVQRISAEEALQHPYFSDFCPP
Sequence (Q15078 whole entry, further chain): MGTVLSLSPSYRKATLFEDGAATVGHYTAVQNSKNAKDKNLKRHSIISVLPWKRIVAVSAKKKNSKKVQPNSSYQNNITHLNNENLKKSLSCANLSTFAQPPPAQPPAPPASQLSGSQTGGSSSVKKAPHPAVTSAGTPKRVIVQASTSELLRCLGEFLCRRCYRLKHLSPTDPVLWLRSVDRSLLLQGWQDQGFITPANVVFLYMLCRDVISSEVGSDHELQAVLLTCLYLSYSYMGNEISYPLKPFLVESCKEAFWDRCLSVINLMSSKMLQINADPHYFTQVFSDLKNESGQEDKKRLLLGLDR

Return IC50 (reported value) for this compound: `O=C1NC(NC2CCCCCC2)=N/C1=C\c1ccc2[nH]ccc2c1` > 10 µM

Return IC50 (reported value) for this compound: CC1(C)CCC(NC2=N/C(=C\c3ccc4ncsc4c3)C(=O)N2)CO1 (racemic) > 10 µM

Return IC50 (reported value) for this compound: CN1CCC(NC2=N/C(=C\c3ccc4ncsc4c3)C(=O)N2)C1=O (racemic) > 10 µM

Return IC50 (reported value) for this compound: O=C1NC(N[C@@H]2CCCC[C@@H](O)C2)=N/C1=C\c1ccc2ncsc2c1 (racemic) > 10 µM

Return IC50 (reported value) for this compound: `O=C1NC(N[C@@H](CO)CC2CCCC2)=N/C1=C\c1ccc2ncsc2c1` > 10 µM

Return IC50 (reported value) for this compound: `CN1CCN(c2cnc(NC3=N/C(=C\c4ccc5ncsc5c4)C(=O)N3)cn2)CC1` > 10 µM

Return IC50 (reported value) for this compound: `O=C1NC(NC23CC4(F)CC(F)(CC(F)(C4)C2)C3)=N/C1=C\c1ccc2ncsc2c1` 0.025 µM

Return IC50 (reported value) for this compound: `Cn1cc2cc(/C=C3\N=C(NC45CC6CC(CC(C6)C4)C5)NC3=O)ccc2n1` > 10 µM

Return IC50 (reported value) for this compound: `O=C1NC(NC2CCCCCC2)=N/C1=C\c1ccc2scnc2c1` > 10 µM

Return IC50 (reported value) for this compound: O=C1NC(N[C@@H]2CCC[C@H]2O)=N/C1=C\c1ccc2ncsc2c1 (racemic) > 10 µM
